System: CCRF-CEM leukemia
Assay: NCI tumour cell line growth inhibition, 48 h
# TGI values compiled below

Field: example entries. Status: answers known.
> print(dat)
                                   molecule      system.tested  assay.result
1  O=S(=O)(CC1=NC2C=CC=CC2N=C1)NCc1ccccc1 (stereo not given)  CCRF-CEM leukemia      > 100 µM
2             C/C(=N\NC(=S)N(C)C)c1ncc[nH]1  CCRF-CEM leukemia       54.9 µM
3  CCN(CC)CCC(=O)Nc1cccc2c1C(=O)c1c(c(O)c3ccccc3c1O)C2=O  CCRF-CEM leukemia       4.71 µM
4  COC(=O)Nc1ccc2ccc3c(NC(=O)OC)ccc4ccc1c2c43 (tested in a mixture with another compound)  CCRF-CEM leukemia       > 50 µM
5  COc1ccc(NC2=C(Sc3nc(C)cc(C)n3)C(=O)N(Cc3ccccc3)C2=O)cc1Cl  CCRF-CEM leukemia      > 160 µM
6  COC(=O)C1=CN(CC2=CC(=O)C(C)=CC2=O)C=C(C(=O)OC)C1c1cccc(OC)c1OC  CCRF-CEM leukemia       77.9 µM

Ask: So what does the record say about TGI for COc1ccc(NC=O)c(C(O)CCNC(C)=O)c1 (stereo not given) ?
Reply: > 100 µM

Ask: Need TGI, item COc1cc(N2CCC(N(C)C)CC2)ccc1Nc1ncc(Cl)c(Nc2ccccc2P(C)(C)=O)n1
Reply: > 100 µM

Ask: Recorded TGI for COc1ccc(CCN2CCC(C#N)(c3ccc(OC)c(OC)c3)CC2)cc1OC , please?
Reply: > 100 µM

Ask: So what does the record say about TGI for O=C(CC(=O)Nc1ccc(Cl)cc1)NNCC(=O)Nc1nc(-c2ccccc2)cs1 ?
Reply: > 100 µM

###

Measured TGI values are reported for all entries that follow.
Test system: MDA-MB-435
Assay: NCI tumour cell line growth inhibition, 48 h

Example molecules with recorded TGI:
> print(dat)
                                   molecule  system.tested  assay.result
1  CN(C)c1ccc(C2CC(=O)CC(c3ccc(N(C)C)cc3)C23C(=O)NC(=O)NC3=O)cc1 (centres undefined)     MDA-MB-435       > 25 µM
2  Cc1ccc2c(c1)C(C1Cc3c(C)cccc3C1=O)OC2=O (centres undefined)     MDA-MB-435      > 100 µM
3  Cn1cnc2c(F)c(Nc3ccc(Br)cc3Cl)c(C(=O)NOCCO)cc21     MDA-MB-435      > 100 µM
4  COC(=O)n1c(=O)nc2c3c(ncn21)Oc1c(c(-c2ccccc2)nn1-c1ccccc1)C3c1ccc(Cl)cc1 (centres undefined)     MDA-MB-435       3.02 µM
5               CC(=O)NNC=N/C(C#N)=C(\N)C#N     MDA-MB-435      > 100 µM

Ask: Request body: readout TGI, system MDA-MB-435, query O=C(O)CCC(=O)Nc1ccc2c(c1)S(=O)(=O)N(CC(=O)O)C2=O . Return the value.
Reply: > 100 µM

Ask: Form field - read-out: TGI; system: MDA-MB-435; submitted item: COc1ccc(NC2=C(Sc3nc(C)cc(C)n3)C(=O)N(Cc3ccccc3)C2=O)cc1Cl
Reply: > 160 µM

Ask: Query for MDA-MB-435: what TGI does the record show for O=c1cc(-c2ccc(O)c(O)c2)oc2cc(OC3OC(CO)C(O)C(O)C3O)cc(O)c12 (centres undefined) ?
Reply: > 100 µM

Ask: Missing value: TGI, MDA-MB-435, entry O=C(/C=C/c1ccc(O)c(O)c1)NC(CO)C(=O)O (centres undefined) . Fill in?
Reply: > 100 µM

###

# TGI listing for each entry below
Tested on: UACC-62 melanoma
Assay: NCI tumour cell line growth inhibition, 48 h

Examples with answers:
> print(dat)
                                   molecule     system.tested  assay.result
1  COC(=O)c1c/c(=N\NC(=O)CC(=O)Nc2ccccc2Cl)c2ccccc2o1  UACC-62 melanoma      > 100 µM
2  N#C/C(=C\c1ccc(Cl)cc1)c1nc2ccccc2c(=O)[nH]1  UACC-62 melanoma      > 100 µM
3  COc1ccc(/C=C/C(=O)NCC(NC(=O)/C=C/c2ccc(OC)c(OC)c2)C(=O)O)cc1OC (stereo not given)  UACC-62 melanoma      > 100 µM
4  COc1ccc(C2(CN(C)C)COc3cc(OC)c(OC)cc3C2=O)cc1OC (stereo not given)  UACC-62 melanoma      > 100 µM
5       COc1ccc(CSCc2cc(OC)c(OC)c(OC)c2)cc1  UACC-62 melanoma      > 100 µM

Ask: Request body: readout TGI, system UACC-62 melanoma, query OCCN(CO)CN(CN(CO)CCO)c1nc(N(CN(CO)CCO)CN(CO)CCO)nc(N(CN(CO)CCO)CN(CO)CCO)n1 . Return the value.
Reply: 3.02 ng/mL

Ask: Lookup: TGI / UACC-62 melanoma / O=C(Nc1ccc(C(F)(F)F)cc1[N+](=O)[O-])C(=O)C(C(=O)c1ccc2ccccc2c1)C1OC(=O)c2ccccc21 (stereo not given)
Reply: 20.4 µM

Ask: // lookup TGI | system=UACC-62 melanoma | key= O=C1C(NCCc2cc(Br)c(O)c(Br)c2)=CC(=O)c2ncccc21
Reply: 3.51 µM

Ask: Request body: readout TGI, system UACC-62 melanoma, query COc1ccc(/C=C/C(=O)c2ccc(Nc3ncnc4ccccc34)cc2)cc1OC . Return the value.
Reply: 27.9 µM

Ask: Record lookup: for UACC-62 melanoma, what TGI belongs to Nc1ncc2c(n1)-c1ccccc1OC2NC1CC1 (stereo not given) ?
Reply: > 100 µM

###

System: KM12 colon
Experiment: NCI tumour cell line growth inhibition, 48 h
measured.quantity: TGI

Solved cases (5 shown):
> print(dat)
                                   compound  assay.result
1  Cc1cccc2c3c(sc12)C(c1ccc(Cl)cc1)C(C#N)=C(/N=C/c1ccc(Cl)cc1)O3 (centres undefined)      > 100 µM
2    CSc1nc(C)cc(Nc2ccc(O)c(CN3CCCCC3)c2)n1      > 100 µM
3  O=C1CCC(c2nc3ccccc3o2)C(=O)N1 (centres undefined)      > 100 µM
4  c1ccc(C2=NN(c3ccccc3)C3(S2)SC(c2ccccc2)(c2ccccc2)c2ccccc23)cc1 (centres undefined)      > 100 µM
5  CC(C#N)Nc1ccc(Oc2ccc(C(C)(C)c3ccc(Oc4ccc(NC(C)C#N)cc4)cc3)cc2)cc1 (centres undefined)      > 100 µM

Ask: Recorded TGI for Cc1c(-c2ccccc2)c(-c2ccc(OCCN(C)C)cc2)n2ccccc12 , please?
Reply: 15.1 µM

Ask: If you can, please state the reported TGI value of CCCCCCN(C(=O)Oc1ccccc1)C(C#N)c1ccccc1 (centres undefined) .
Reply: > 100 µM

Ask: Name the recorded TGI for COc1ccc(/C=C/C(=O)NCC(NC(=O)/C=C/c2ccc(OC)c(OC)c2)C(=O)O)cc1OC (centres undefined) .
Reply: > 100 µM

Ask: # get_value(readout='TGI', item= CC(=O)OCC(=O)[C@@]1(O)[C@H](C)C[C@H]2[C@@H]3C=C(C)C4=Cc5c(cnn5-c5ccc(F)cc5)C[C@]4(C)[C@H]3[C@@H](O)C[C@@]21C )
Reply: 2.94 µM

###

Tested on: MOLT-4 leukemia
Assay: NCI tumour cell line growth inhibition, 48 h
measured.quantity: TGI

> print(dat)
                                   molecule  assay.result
1  O=c1nc2n(CCO)c(-c3ccccc3)c(-c3ccccc3)nc-2c(=O)[nH]1      > 100 µM
2                          C1CSCC2(COC2)CS1      > 100 µM
3  O=C(/C=C/c1ccc(O)c(O)c1)NC(CO)C(=O)O (stereo unspecified)      > 100 µM
4  [N-]=[N+]=Nc1ncc(-c2ccc(C(F)(F)F)cc2)c(NC2CCCCCC2)n1       > 10 µM
5  Cc1ccc2c(c1)C(C1Cc3c(C)cccc3C1=O)OC2=O (stereo unspecified)      > 100 µM

Ask: Entry COc1cc2c(cc1OCCCCCOc1cc(-c3ccc(F)cc3)nc(C)n1)N=C[C@@H]1CCCN1C2=O has what TGI?
Reply: > 45 µM

Ask: What TGI value was documented for this molecule, N#C/C(=C\c1ccc(Cl)cc1)c1nc2ccccc2c(=O)[nH]1 ?
Reply: > 100 µM

###

# maps each entry to its TGI
System: UACC-62 melanoma
Test: NCI tumour cell line growth inhibition, 48 h

Worked examples follow.
> print(dat)
                                   compound  assay.result
1  CCOC(=O)CNC(=O)C(CSC(=O)N(O)c1ccc(Br)cc1)NC(=O)CCC(N)C(=O)OCC (stereo unspecified)       > 50 µM
2             Cc1ccc2sc3cc(=O)cc(C)c-3nc2c1         36 µM
3  COc1nccc(-c2c(-c3ccc(F)cc3)ncn2C2CCC(O)CC2)n1 (stereo unspecified)      > 100 µM
4            COc1ccccc1NC(=O)C(C#N)=C(SC)SC      > 100 µM
5       CCc1ccccc1NC(=O)CCc1nc(=S)[nH][nH]1      > 100 µM

Continue with the compound presented below.
Ask: Test system UACC-62 melanoma; read-out TGI; what value for O=C(CCN(CCO)CCO)Nc1ccc2c(c1)C(=O)c1ccc(NC(=O)CCN(CCO)CCO)cc1C2=O ?
Reply: 27.8 µM
